Recorded MIC by entry
- Tested on: Haemophilus influenzae
- method.notes: Antibacterial activity against Haemophilus influenzae HI3542
- Format: functional
- experimental.parameters: HI-3542
# number only, unit µg/mL dropped from output

See these solved cases before continuing.
Fill in the recorded MIC for this compound, with Haemophilus influenzae as test system: `COc1c(N2CC[C@@H]([C@H](C)NCCC#N)C2)c(F)cc2c(=O)c(C(=O)O)cn(C3CC3)c12`
0.06

Hi! What's the reported MIC for `COc1c(N2CC[C@@H](CNCCC#N)C2)c(F)cc2c(=O)c(C(=O)O)cn(C3CC3)c12` on Haemophilus influenzae?
0.125

***
So what MIC did O=C(O)c1cn(C2CC2)c2cc(N3CCNCC3)c(F)cc2c1=O [CIPROFLOXACIN] get with Haemophilus influenzae?
0.008

Test system Haemophilus influenzae; read-out MIC; what value for `Cc1c(N2CC(C)(CN)C2)c(F)cc2c(=O)c(C(=O)O)cn(C3CC3)c12` ?
0.015

----------
This listing pairs compounds with measured Cmax.
- method.notes: Cmax in rat at 5 mg/kg, po
- Type: ADME, organism-based
- Design: dose 5 mg/kg, route oral
- experimental.parameters: in vivo
Enter your answer as a number in ng/mL; do not include the unit.

Below are worked cases with known answers.
Look up Cmax for this compound: `COc1c(N2CC[C@@H]([C@@H](N)CC#N)C2)ccc2c(=O)c(C(=O)O)cn(C3CC3)c12`
1400

// Cmax lookup, key: `COc1c(N2CC[C@@H]([C@H](C)NCCC#N)C2)c(F)cc2c(=O)c(C(=O)O)cn(C3CC3)c12`
1200

---
Could you tell me which Cmax is on file for `CN[C@@H](CC#N)[C@@H]1CCN(c2c(F)cc3c(=O)c(C(=O)O)cn(C4CC4)c3c2OC)C1` ?
1400

Can you look up the measured Cmax of `Cc1c(N2CC(C)(CN)C2)c(F)cc2c(=O)c(C(=O)O)cn(C3CC3)c12` for me?
300

What Cmax value was documented for this compound, `CCC1(CNCCC#N)CN(c2c(F)cc3c(=O)c(C(=O)O)cn(C4CC4)c3c2C)C1` ?
2600

----------
- system.tested: Voltage-gated inwardly rectifying potassium channel KCNH2 (Homo sapiens)
- Sequence (Q12809 whole entry): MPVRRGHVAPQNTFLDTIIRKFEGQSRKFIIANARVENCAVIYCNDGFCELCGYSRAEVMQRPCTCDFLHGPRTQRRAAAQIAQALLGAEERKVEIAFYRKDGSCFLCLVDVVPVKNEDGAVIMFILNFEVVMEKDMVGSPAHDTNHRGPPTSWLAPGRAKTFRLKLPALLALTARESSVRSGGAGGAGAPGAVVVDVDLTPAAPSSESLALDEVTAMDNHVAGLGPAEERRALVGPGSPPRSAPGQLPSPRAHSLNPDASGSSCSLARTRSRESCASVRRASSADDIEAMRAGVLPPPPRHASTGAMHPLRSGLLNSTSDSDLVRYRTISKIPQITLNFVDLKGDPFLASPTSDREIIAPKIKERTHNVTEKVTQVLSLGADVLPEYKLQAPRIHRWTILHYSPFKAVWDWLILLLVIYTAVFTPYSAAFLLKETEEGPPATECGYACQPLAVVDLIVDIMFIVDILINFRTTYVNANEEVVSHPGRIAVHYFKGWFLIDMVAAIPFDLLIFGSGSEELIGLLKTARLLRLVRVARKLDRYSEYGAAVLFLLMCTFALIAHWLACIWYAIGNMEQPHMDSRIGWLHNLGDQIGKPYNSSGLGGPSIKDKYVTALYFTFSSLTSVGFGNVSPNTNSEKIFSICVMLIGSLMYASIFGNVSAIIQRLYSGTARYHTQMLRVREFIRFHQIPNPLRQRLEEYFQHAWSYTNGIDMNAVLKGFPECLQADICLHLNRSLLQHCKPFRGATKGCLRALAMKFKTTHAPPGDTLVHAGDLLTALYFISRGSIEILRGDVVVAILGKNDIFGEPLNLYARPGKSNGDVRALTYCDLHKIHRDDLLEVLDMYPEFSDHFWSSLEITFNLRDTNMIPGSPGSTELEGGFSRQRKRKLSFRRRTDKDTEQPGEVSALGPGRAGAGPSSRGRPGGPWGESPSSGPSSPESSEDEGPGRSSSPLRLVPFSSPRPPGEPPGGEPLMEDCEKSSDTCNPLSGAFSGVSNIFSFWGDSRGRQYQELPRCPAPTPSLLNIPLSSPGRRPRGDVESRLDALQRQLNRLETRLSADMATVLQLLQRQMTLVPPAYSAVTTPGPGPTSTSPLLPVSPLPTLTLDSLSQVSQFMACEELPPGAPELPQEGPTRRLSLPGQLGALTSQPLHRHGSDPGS
- method.notes: Displacement of [3H]dofetilide from human ERG by fliter binding assay
pKi: −log10 of the molar value.
measured.quantity: pKi

Previously resolved entries follow.
Reported pKi, compound `COc1c(N2CC[C@@H](CN)C2)c(F)cc2c(=O)c(C(=O)O)cn(C3CC3)c12` : ____
4.62

Give the measured pKi of `CCC1(CNCCC#N)CN(c2c(F)cc3c(=O)c(C(=O)O)cn(C4CC4)c3c2C)C1` .
< 3.82

Fill blank: measured pKi of the compound `CCC1(CN)CN(c2c(F)cc3c(=O)c(C(=O)O)cn(C4CC4)c3c2C)C1` is ____.
4.35

Which measured pKi value corresponds to CC1COc2c(N3CC[C@@H]([C@@H](N)CC#N)C3)c(F)cc3c(=O)c(C(=O)O)cn1c23 (stereo partly drawn) ?
< 3.82

So what's the measured pKi for this one? `COc1c(N2CC[C@@H]([C@@H](N)CC#N)C2)ccc2c(=O)c(C(=O)O)cn(C3CC3)c12`
< 3.82

Continuing:
Returns the measured pKi for the input compound. Input: CN[C@@H](C)[C@@H]1CCN(c2c(F)cc3c(=O)c(C(=O)O)cn(C4CC4)c3c2OC)C1 [PREMAFLOXACIN]
< 3.82

I would be grateful if you could share the reported pKi for CC1COc2c(N3CC[C@@H]([C@H](C)NCCC#N)C3)c(F)cc3c(=O)c(C(=O)O)cn1c23 (stereo partly drawn) .
< 3.82

Which pKi is listed for CC1COc2c(N3CC[C@@H]([C@H](C)N)C3)c(F)cc3c(=O)c(C(=O)O)cn1c23 (stereo partly drawn) ?
< 4.00
